Data origin, for the record: paper PMC9352680

MEASURED_TARGET: T1, PUF4 RNA-binding domain (Saccharomyces cerevisiae, UniProt P25339 537-888)
T1 sequence: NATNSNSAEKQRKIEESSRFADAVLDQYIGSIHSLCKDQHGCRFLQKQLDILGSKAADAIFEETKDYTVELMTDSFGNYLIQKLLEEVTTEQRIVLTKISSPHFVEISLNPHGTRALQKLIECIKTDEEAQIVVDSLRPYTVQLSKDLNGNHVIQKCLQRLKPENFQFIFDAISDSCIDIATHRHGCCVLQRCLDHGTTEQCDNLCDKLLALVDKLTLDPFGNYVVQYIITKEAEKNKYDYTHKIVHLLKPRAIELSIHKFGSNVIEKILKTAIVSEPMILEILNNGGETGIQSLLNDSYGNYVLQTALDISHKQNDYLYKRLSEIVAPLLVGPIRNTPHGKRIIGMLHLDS
TEST: Mg; RNA-MaP; 20 mM Na-HEPES pH 7.4, 30 mM KOAc, 0.75 mM MgCl2, 0.1% Tween-20, 5% glycerol, 0.1 mg/mL BSA, 2 mM DTT; 25 C; 0.0125-409.6 nM protein
CONDITION_SUMMARY: tags: N-His6-TEV cleaved; C-SNAP kept, Cy3B-labelled; label: tethered on chip by stalled RNA polymerase
# note: exactly 400 nM is not below, so it is 0; use 1 for Kd strictly under it

{"columns": ["BINDER", "ANSWER_LABEL"],
 "data": [
  ["Ie_S4_P3E.2_K3.1_C3.2_[+-1C]_H3.1_A3.1_F3.1_T3.2 (ssRNA) RNA: UUUGACAACUGAUCGUUCUUUCUCUCUGUAUAUAUAUUCUUUCUCGAUCAGUUGUCUUU", 1],
  ["UCUCUUUGUACACCGAUCUCUU (ssRNA) [Ic_S1_P5E.1_K5.1_C5.1_H5.1_A5.1_[T5C]_[T6A]_[A7C]_F5.1_[T8C]_[T9G]_T5.1]", 0],
  ["ACAAACGCACACUUAUUAAGACAAAC (ssRNA) [Id_ii_S3_P5E.4_K5.3_C5.2_[C-2G]_[T-1C]_H5.3_A5.1_F5.1_T5.2_[T11A]_[A12G]]", 0],
  ["Ic_S2_P5E.1_K5.1_C5.1_H5.1_A5.1_[T6G]_[A7T]_F5.1_[T8C]_[T9A]_[A10C]_T5.1 (ssRNA) RNA: UUUGAUUAAUAUGAUAUCGUUCUUUCUUGUAUGUCACUUCUUUCUCGAUAUCAUAUUAAUCUUU", 1],
  ["Ib_S2_P5E.1_K5.1_C5.1_H5.1_[G2A]_[A4C]_A5.1_F5.1_T5.1 (ssRNA) RNA: UUUGAUUAAUAUGAUAUCGUUCUUUCUUAUCUUAUUAUUCUUUCUCGAUAUCAUAUUAAUCUUU", 0],
  ["UCUCUUCCUAUAUAUACAUCUCUU (ssRNA) [Id_ii_S1_P3E.3_K3.2_C3.2_[T-1C]_H3.2_A3.1_F3.1_T3.2_[T9C]]", 0]
]}
